tgt: recombinant homotrimeric HA, A/California/4/09 H1N1 (Influenza A virus A/California/4/09 (H1N1))
test description: trimeric HA microarray, transfection set 2
particulars: remark: other sources report otherwise
Please respond with reported Trimeric HA Binding RLU for every item in the list.
Answers are plain numbers, in RLU.

- TCN-563 (5237_B21) (antibody, V domains shown) VH: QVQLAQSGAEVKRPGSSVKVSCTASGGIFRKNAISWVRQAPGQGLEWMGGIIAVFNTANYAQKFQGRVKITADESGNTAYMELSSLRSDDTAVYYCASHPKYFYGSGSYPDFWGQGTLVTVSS VL: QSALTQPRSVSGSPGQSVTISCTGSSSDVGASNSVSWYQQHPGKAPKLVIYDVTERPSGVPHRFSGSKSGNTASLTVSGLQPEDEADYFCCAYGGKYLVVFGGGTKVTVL: 21200
- TCN-523 (5248_A17) (antibody, V domains shown) VH: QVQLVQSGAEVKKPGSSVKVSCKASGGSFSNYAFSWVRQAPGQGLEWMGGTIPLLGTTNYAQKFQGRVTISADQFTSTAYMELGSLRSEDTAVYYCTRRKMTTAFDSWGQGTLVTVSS VL: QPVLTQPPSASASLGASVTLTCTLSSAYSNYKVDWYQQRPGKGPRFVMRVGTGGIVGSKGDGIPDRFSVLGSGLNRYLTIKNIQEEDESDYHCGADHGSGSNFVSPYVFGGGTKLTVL: 18700

Could you now look at the following binder, please?
Which Trimeric HA Binding RLU value belongs to TCN-528 (5087_P17) (antibody, V domains shown) VH: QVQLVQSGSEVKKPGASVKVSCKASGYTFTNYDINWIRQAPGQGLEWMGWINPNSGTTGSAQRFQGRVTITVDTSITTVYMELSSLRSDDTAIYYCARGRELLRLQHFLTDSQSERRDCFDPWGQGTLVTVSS VL: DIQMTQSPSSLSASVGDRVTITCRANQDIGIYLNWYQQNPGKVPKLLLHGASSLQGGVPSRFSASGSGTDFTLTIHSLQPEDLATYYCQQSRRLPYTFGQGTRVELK ?
44600
